Each record here notes measured Kd.
Target: HLA-A*02:06 molecule (Homo sapiens, UniProt P04439, D140Y/D185E/D98H/E176V/E277Q/F33Y/G131W/G231S/I119V/I121R/I166T/I218V/L300P/L318F/N151K/N90K/P208A/P217A/Q86G/Q94H/R138H/R169H/T345S)
Construct: expressed in transfected cells; host or cells: RA2.6 cells (mouse TAP-deficient RMAS with HLA-A*02:06 cDNA)
Assay: Binding of peptide to HLA-A*02:06 molecule using RA2.6 cells
Conditions: Table 2; dissociation constant Kd value (−log Kd value); >−3.0 = no significant binding ability; read-out: Measured value of allele A*02:06 (converted)
No end group written: not given here.

Name the recorded Kd for GYITCERPF [compound 65] .
> 1000 µM

Name the recorded Kd for ILSDHQQSQ [compound 70] .
> 1000 µM

Name the recorded Kd for GILSDHQQS [compound 74] .
> 1000 µM

Name the recorded Kd for YPGWHSTTI [compound 52] .
> 1000 µM

Name the recorded Kd for GTHLDAGTV [compound 51] .
218 µM

Name the recorded Kd for AYRTCWIFS [compound 49] .
> 1000 µM

Name the recorded Kd for ATAPPTAQL [compound 25] .
0.684 µM

---

Biological target: HLA-A*24:02 molecule (Homo sapiens, UniProt P04439, D101N/D140Y/D185E/E176V/E190D/F33S/G103R/G107R/I119L/I121M/I306V/K335N/L105A/L180Q/L300P/N151K/N90K/Q86E/Q94H/R106L/R138H/R89G/T104I/T345S/V100E/W191G/Y123F)
Test: Binding of peptide to HLA-A*24:02 molecule using C1R-A24 cells
Settings: Table 2; dissociation constant Kd value (−log Kd value); >−3.0 = no significant binding ability; read-out: Measured value of allele A*24:02 (converted)
No end group written: not given here.
measured-quantity: Kd (µM)

{"columns": ["residue-sequence", "Kd [µM]"],
 "data": [
  ["LLITRKSFI [compound 16]", 0.23],
  ["LPFSPSQFL [compound 60]", 448],
  ["LIITRKSFI [compound 29]", 2.5],
  ["YPGWHSTTI [compound 52]", 2.18],
  ["SLVLTWAAL [compound 14]", 4.89]
]}

[I] LAITRKSFI [compound 46]
[II] ALAPPTAQL [compound 6]
[III] YFFTVIFSF [compound 44]
[IV] SLLITRKSF [compound 62]
[V] HMAKVIEFL [compound 38]
Please order the records by their reported Kd, lowest number first. Please reply with the labels ordered as requested. Many thanks.
III, V, IV, II, I
(III: 0.168 µM, V: 0.923 µM, IV: 1.44 µM, II: 4.69 µM, I: 7.61 µM)

---

Biological target: HLA-A*02:01 molecule (Homo sapiens, UniProt P04439, D140Y/D185E/D98H/E176V/E277Q/G131W/G231S/I119V/I121R/I166T/I218V/L300P/L318F/N151K/N90K/P208A/P217A/Q86G/Q94H/R138H/R169H/T345S)
Construct: using a cell line T2 (purchased from ATCC) expressing an HLA-A*02:01 molecule; host or cells: T2 cell line
Assay: Binding of peptide to HLA-A*02:01 molecule using cell line T2
Settings: Table 2; dissociation constant Kd value (−log Kd value); >−3.0 = no significant binding ability; read-out: Measured value of allele A*02:01 (converted)
No end group written: not given here.
measured-quantity: Kd (µM)

{"columns": ["residue-sequence", "Kd / µM"],
 "data": [
  ["MLPQTPSHL [compound 24]", 2.64],
  ["ATGDCSSFI [compound 59]", 83.1],
  ["LLNPNRQTI [compound 23]", 5.74],
  ["ALAPPTAQL [compound 6]", 0.265],
  ["HMAKVIEFL [compound 38]", 2.06],
  ["LLITRKSFI [compound 16]", 7.39]
]}

[I] LLLFSAAAL [compound 1]
[II] YLYDPPTTI [compound 4]
[III] SLVLTWAAL [compound 14]
[IV] ALLAPAVLL [compound 7]
[V] LVEEHGATL [compound 43]
Place the items in sequence of falling Kd. Please reply with the labels ordered as requested. Many thanks.
V, III, I, II, IV

[I] ALPKIRARV [compound 12]
[II] VMSHHGEKL [compound 19]
Compare I and II and name the one whose reported Kd is smaller. Output the label that corresponds to your choice.
I

[a] FSNDFGQSL [compound 35]
[b] LTEEHGATL [compound 42]
Sort a and b by Kd descending and give the first. Output the label that corresponds to your choice.
a
(a: 126 µM, b: 82.1 µM)

---

Biological target: HLA-A*02:06 molecule (Homo sapiens, UniProt P04439, D140Y/D185E/D98H/E176V/E277Q/F33Y/G131W/G231S/I119V/I121R/I166T/I218V/L300P/L318F/N151K/N90K/P208A/P217A/Q86G/Q94H/R138H/R169H/T345S)
Construct: expressed in transfected cells; host or cells: RA2.6 cells (mouse TAP-deficient RMAS with HLA-A*02:06 cDNA)
Assay: Binding of peptide to HLA-A*02:06 molecule using RA2.6 cells
Details: Table 2; dissociation constant Kd value (−log Kd value); >−3.0 = no significant binding ability; read-out: Measured value of allele A*02:06 (converted)
No end group written: not given here.
Each record here notes measured Kd.

Recorded results for 4 sequences are shown here.
{"columns": ["residue-sequence", "result"],
 "data": [
  ["SLLITRKSF [compound 62]", "> 1000 µM"],
  ["CDLSSFEFF [compound 58]", "> 1000 µM"],
  ["SLVLTWAAL [compound 14]", "0.572 µM"],
  ["SSLDPPKVL [compound 55]", "> 1000 µM"]
]}

Next item in the queue.
Name the recorded Kd for STGESAQTS [compound 71] .
> 1000 µM

---

Each record here notes measured Kd.
Molecular target: HLA-A*02:01 molecule (Homo sapiens, UniProt P04439, D140Y/D185E/D98H/E176V/E277Q/G131W/G231S/I119V/I121R/I166T/I218V/L300P/L318F/N151K/N90K/P208A/P217A/Q86G/Q94H/R138H/R169H/T345S)
Construct: using a cell line T2 (purchased from ATCC) expressing an HLA-A*02:01 molecule; host or cells: T2 cell line
Assay: Binding of peptide to HLA-A*02:01 molecule using cell line T2
Conditions: Table 2; dissociation constant Kd value (−log Kd value); >−3.0 = no significant binding ability; read-out: Measured value of allele A*02:01 (converted)
Protocol: Measurement of binding ability of a peptide to an HLA-A*02:01 molecule, which is a product of an HLA-A*02:01 gene, was performed using a cell line T2 (purchased from ATCC) expressing an HLA-A*02:01 molecule. T2 cells and purified β2m were added to a serial dilution series of a peptide whose binding ability was to be measured, and then the mixture was incubated at 37° C. for four hours. […]
No end group written: not given here.

Recorded results for 8 sequences are shown here.
{"columns": ["residue-sequence", "Kd"],
 "data": [
  ["GYITCERPF [compound 65]", "> 1000 µM"],
  ["FIDSDSSSW [compound 57]", "> 1000 µM"],
  ["VFGRVMQID [compound 66]", "> 1000 µM"],
  ["EAIDGYITL [compound 47]", "> 1000 µM"],
  ["ETLQFIDSM [compound 53]", "> 1000 µM"],
  ["SPDEFSNDF [compound 73]", "> 1000 µM"],
  ["STGESAQTS [compound 71]", "> 1000 µM"],
  ["ISAYRTCWI [compound 34]", "> 1000 µM"]
]}

Name the recorded Kd for HMTSSERPF [compound 64] .
> 1000 µM

Name the recorded Kd for ARHSTIPLV [compound 77] .
> 1000 µM

Name the recorded Kd for YVYDPPTTI [compound 2] .
0.696 µM

Name the recorded Kd for CDLSSFEFF [compound 58] .
> 1000 µM

Name the recorded Kd for GYITLGKPH [compound 80] .
> 1000 µM

Name the recorded Kd for CTDEHQWQL [compound 39] .
9.07 µM

Name the recorded Kd for ALRPAPALL [compound 26] .
0.774 µM

---

Target: HLA-A*02:01 molecule (Homo sapiens, UniProt P04439, D140Y/D185E/D98H/E176V/E277Q/G131W/G231S/I119V/I121R/I166T/I218V/L300P/L318F/N151K/N90K/P208A/P217A/Q86G/Q94H/R138H/R169H/T345S)
Construct: using a cell line T2 (purchased from ATCC) expressing an HLA-A*02:01 molecule; host or cells: T2 cell line
Test: Binding of peptide to HLA-A*02:01 molecule using cell line T2
Details: Table 2; dissociation constant Kd value (−log Kd value); >−3.0 = no significant binding ability; read-out: Measured value of allele A*02:01 (converted)
No end group written: not given here.
measured-quantity: Kd

Recorded results for 10 sequences are shown here.
{"columns": ["residue-sequence", "Kd"],
 "data": [
  ["ATAPPTAQL [compound 25]", "10.1 µM"],
  ["CMIVHQGTI [compound 36]", "> 1000 µM"],
  ["LMEEHGATL [compound 13]", "12.1 µM"],
  ["VLLQQFQTA [compound 15]", "19.3 µM"],
  ["KFLEAFHEV [compound 8]", "1.17 µM"],
  ["SLPNEKQTS [compound 69]", "> 1000 µM"],
  ["LAITRKSFI [compound 46]", "> 1000 µM"],
  ["GSPDEFSND [compound 72]", "> 1000 µM"],
  ["LIITRKSFI [compound 29]", "78.1 µM"],
  ["GTHLDAGTV [compound 51]", "> 1000 µM"]
]}

Name the recorded Kd for CLDEHQWQL [compound 9] .
0.216 µM

Name the recorded Kd for VLPPARHST [compound 54] .
7.73 µM
